test method notes: Tmax in rat at 1 mg/kg, iv and 10 mg/kg, po
Assay type: ADME, organism-based
measurement setup: in vivo

| structure smiles | endpoint unit | Tmax |
| --- | --- | --- |
| Cc1ccc(F)cc1Cn1c(N2CCC[C@@](C)(N)C2)cc2c1c(=O)n(C)c(=O)n2C.Cl | h | 3 |

====

System: Liver microsomes
test method notes: Metabolic stability in rat liver microsomes at 10 uM after 39 mins
Assay type: ADME, Microsome
measurement setup: 0.5 h, in the assay text read “30 mins” for “39 mins”
Documented Microsomal clearance across a set of compounds

| structure smiles | bound type | Microsomal clearance, µL/min/mg |
| --- | --- | --- |
| Cl.Cn1c(=O)c2c(cc(N3CCC[C@@](C)(N)C3)n2Cc2cc(F)ccc2Cl)n(C)c1=O | = | 46 |
| Cc1ccc(F)cc1Cn1c(N2CCC[C@@](C)(N)C2)cc2c1c(=O)n(C)c(=O)n2C.Cl | = | 13 |
| Cl.Cn1c(=O)c2c(cc(N3CCC[C@@](C)(N)C3)n2Cc2cc(F)ccc2Cl)n(CCCO)c1=O | = | 17 |
| CCn1c(=O)n(C)c(=O)c2c1cc(N1CCC[C@@](C)(N)C1)n2Cc1cc(F)ccc1C#N.Cl | < | 10 |
| CN(C)C(=O)Cn1c(=O)n(C)c(=O)c2c1cc(N1CCC[C@@](C)(N)C1)n2Cc1cc(F)ccc1Cl.Cl | < | 10 |
| Cc1ccc(F)cc1Cn1c(N2CCC[C@@](C)(N)C2)cc2ncn(C)c(=O)c21.Cl | = | 264 |

====

test method notes: Clearance in rat at 1 mg/kg, iv
Type: ADME, organism-based
Design: dose 1 mg/kg, route intravenous
measurement setup: in vivo
attribute measured: clearance

| structure smiles | value reported |
| --- | --- |
| Cc1ccc(F)cc1Cn1c(N2CCC[C@@](C)(N)C2)cc2c1c(=O)n(C)c(=O)n2C.Cl | 51.5 mL/min/kg |

====

Tested on: Liver microsomes
test method notes: Metabolic stability in human liver microsomes at 10 uM after 39 mins
Format: ADME, Microsome
measurement setup: 0.5 h, in the assay text read “30 mins” for “39 mins”

| structure smiles | Microsomal clearance (µL/min/mg) |
| --- | --- |
| CCn1c(=O)n(C)c(=O)c2c1cc(N1CCC[C@@](C)(N)C1)n2Cc1cc(F)ccc1C#N.Cl | 21 |
| Cc1ccc(F)cc1Cn1c(N2CCC[C@@](C)(N)C2)cc2c1c(=O)n(C)c(=O)n2C.Cl | 56 |
| CN(C)C(=O)Cn1c(=O)n(C)c(=O)c2c1cc(N1CCC[C@@](C)(N)C1)n2Cc1cc(F)ccc1Cl.Cl | 19 |
| Cc1ccc(F)cc1Cn1c(N2CCC[C@@](C)(N)C2)cc2ncn(C)c(=O)c21.Cl | 48 |
| Cl.Cn1c(=O)c2c(cc(N3CCC[C@@](C)(N)C3)n2Cc2cc(F)ccc2Cl)n(CCCO)c1=O | 16 |
| Cl.Cn1c(=O)c2c(cc(N3CCC[C@@](C)(N)C3)n2Cc2cc(F)ccc2Cl)n(C)c1=O | 82 |

====

Documented pIC50 across a set of molecules
target of assay: Dipeptidyl peptidase 9 (Homo sapiens)
Sequence (Q86TI2 whole entry): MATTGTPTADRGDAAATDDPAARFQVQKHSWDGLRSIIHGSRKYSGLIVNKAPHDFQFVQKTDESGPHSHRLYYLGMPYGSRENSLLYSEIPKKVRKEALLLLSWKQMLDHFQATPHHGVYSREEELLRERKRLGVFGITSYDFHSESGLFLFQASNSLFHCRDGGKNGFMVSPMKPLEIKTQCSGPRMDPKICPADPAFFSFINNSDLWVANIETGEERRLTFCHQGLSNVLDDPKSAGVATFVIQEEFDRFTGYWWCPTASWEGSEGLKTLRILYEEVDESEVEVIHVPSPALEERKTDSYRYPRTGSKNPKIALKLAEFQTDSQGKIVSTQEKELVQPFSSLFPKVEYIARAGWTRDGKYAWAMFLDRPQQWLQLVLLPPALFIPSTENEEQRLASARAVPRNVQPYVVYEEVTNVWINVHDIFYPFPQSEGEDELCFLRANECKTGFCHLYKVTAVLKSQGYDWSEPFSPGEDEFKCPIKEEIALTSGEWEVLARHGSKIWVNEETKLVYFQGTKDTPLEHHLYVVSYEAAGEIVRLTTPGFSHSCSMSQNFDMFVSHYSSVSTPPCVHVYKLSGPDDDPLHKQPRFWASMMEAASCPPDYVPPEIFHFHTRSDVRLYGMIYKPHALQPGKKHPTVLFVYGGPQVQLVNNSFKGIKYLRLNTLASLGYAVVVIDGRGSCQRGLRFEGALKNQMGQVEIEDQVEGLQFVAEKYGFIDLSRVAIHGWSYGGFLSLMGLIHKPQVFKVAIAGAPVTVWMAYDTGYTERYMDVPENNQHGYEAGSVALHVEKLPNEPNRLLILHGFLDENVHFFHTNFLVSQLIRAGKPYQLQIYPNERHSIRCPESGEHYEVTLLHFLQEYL
test method notes: Inhibition of DPP9
pIC50: −log10 of the molar value.

| structure smiles | pIC50 |
| --- | --- |
| Cl.Cn1c(=O)c2c(cc(N3CCC[C@@](C)(N)C3)n2Cc2cc(F)ccc2Cl)n(CCCO)c1=O | < 5.00 |
| Cn1cnc2cc(N3CCC[C@@](C)(N)C3)n(Cc3ccccc3C#N)c2c1=O | < 5.00 |
| Cn1cnc2cc(N3CCC[C@@](C)(N)C3)n(Cc3cc(F)ccc3Cl)c2c1=O | < 5.00 |
| Cc1ccc(F)cc1Cn1c(N2CCC[C@@](C)(N)C2)cc2ncn(C)c(=O)c21.Cl | < 5.00 |
| Cc1ccc(F)cc1Cn1c(N2CCC[C@@](C)(N)C2)cc2c1c(=O)n(C)c(=O)n2C.Cl | < 5.00 |
| Cn1cnc2cc(N3CCC[C@@](C)(N)C3)n(Cc3cc(F)ccc3C#N)c2c1=O | < 5.00 |
